Biological target: T1, EsCas13d, nuclease-dead (Eubacterium siraeum, UniProt B0MS50, R295A;H300A;R849A;H854A)
T1 sequence: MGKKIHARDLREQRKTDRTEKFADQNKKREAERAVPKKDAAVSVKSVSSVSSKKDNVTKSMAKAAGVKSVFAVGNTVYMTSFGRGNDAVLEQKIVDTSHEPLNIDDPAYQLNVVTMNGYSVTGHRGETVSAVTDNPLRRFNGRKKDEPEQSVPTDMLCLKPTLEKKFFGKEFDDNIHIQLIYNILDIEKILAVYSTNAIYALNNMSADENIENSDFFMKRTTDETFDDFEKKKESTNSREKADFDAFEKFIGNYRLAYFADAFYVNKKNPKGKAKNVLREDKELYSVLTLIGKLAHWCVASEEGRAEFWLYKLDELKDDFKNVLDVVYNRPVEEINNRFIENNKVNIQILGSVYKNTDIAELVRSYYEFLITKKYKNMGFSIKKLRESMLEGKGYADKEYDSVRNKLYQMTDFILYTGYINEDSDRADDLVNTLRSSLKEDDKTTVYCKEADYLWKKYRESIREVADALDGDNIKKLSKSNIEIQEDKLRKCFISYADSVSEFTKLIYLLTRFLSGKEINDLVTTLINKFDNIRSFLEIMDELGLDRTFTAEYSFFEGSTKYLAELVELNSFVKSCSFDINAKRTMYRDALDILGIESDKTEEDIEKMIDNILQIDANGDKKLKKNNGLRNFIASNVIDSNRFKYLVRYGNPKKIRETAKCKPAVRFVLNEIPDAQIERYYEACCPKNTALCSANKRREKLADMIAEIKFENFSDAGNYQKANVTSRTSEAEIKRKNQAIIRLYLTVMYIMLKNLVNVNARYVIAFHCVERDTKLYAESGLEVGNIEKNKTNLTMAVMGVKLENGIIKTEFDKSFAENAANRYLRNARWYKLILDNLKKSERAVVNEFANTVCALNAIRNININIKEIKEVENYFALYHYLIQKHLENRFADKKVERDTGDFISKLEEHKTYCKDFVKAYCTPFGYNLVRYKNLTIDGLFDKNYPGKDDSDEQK
Assay: crRNA (strand 1, pre-loaded); Mg2+; 40 mM Tris-HCl pH 7.5, 150 mM NaCl, 6 mM MgCl2, 1 mM DTT, 0.1% Tween-20, 0.2 mg/ml BSA; 25 C; 10 min per concentration, then washed
Conditions: tags: His6-TwinStrep-SUMO cleaved; N-terminal SNAP kept (SNAP-Surface 488); label: 3' end held by stalled T7 RNA polymerase
measured_attribute: Kd
Entry format: amount then unit.

binder="target 1 MT 5'PFS AAC 3'PFS UCU (mixed) RNA 1: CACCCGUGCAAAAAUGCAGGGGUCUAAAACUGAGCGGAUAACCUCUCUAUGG RNA 2: GGGAAUGGAUCCACAUCUACGAAUUCAACCCAUAGAGAGGUUAUCCGCUCAUCUAGAUCGGAAGAGCACACGU" measured_attribute=Kd data_value="22.5 nM"

Query target 1 C4U,G5C (mixed) RNA 1: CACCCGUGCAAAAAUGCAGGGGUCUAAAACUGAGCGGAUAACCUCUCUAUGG RNA 2: GGGAAUGGAUCCACAUCUACGAAUUCGUACCAUAGAGAGGUUAUCCCUUCACCGAGAUCGGAAGAGCACACGU yields Kd of 39 nM

Query target 1 C7U,C22A (mixed) RNA 1: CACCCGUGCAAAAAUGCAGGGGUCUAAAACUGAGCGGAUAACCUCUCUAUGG RNA 2: GGGAAUGGAUCCACAUCUACGAAUUCGUAACAUAGAGAGGUUAUUCGCUCACCGAGAUCGGAAGAGCACACGU yields Kd of 11 nM

Query target 1 MT 5'PFS GAG 3'PFS AUU (mixed) RNA 1: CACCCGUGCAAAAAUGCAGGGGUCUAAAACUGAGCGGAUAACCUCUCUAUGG RNA 2: GGGAAUGGAUCCACAUCUACGAAUUCGAGCCAUAGAGAGGUUAUCCGCUCAAUUAGAUCGGAAGAGCACACGU yields Kd of 36 nM

Cited source for all entries: paper PMC10786891
